Numbers sourced from patent US20090076062A1.

Assayed target: Recombinant human renin (Homo sapiens, UniProt P00797)
Construct: made in house; host or cells: Chinese Hamster Ovary cells
Sequence (P00797 67-406): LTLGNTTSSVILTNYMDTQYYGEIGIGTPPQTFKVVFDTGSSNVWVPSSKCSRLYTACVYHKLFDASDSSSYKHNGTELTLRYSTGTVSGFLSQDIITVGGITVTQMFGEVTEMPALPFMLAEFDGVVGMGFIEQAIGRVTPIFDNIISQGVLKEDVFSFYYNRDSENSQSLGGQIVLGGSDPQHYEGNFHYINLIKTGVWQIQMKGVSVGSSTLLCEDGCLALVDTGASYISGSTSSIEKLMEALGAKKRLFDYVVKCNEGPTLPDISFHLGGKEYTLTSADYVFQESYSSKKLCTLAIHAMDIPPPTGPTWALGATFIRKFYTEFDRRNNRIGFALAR
Test summary: Renin inhibitory activity in vitro, hu-renin FRET assay
Format: biochemical
Consider the following compounds; for each one, report its IC50.
Please make sure the unit comes right after the number.

Recorded IC50, per entry:
COCCCOc1cc(C[C@@H](C[C@H](N)[C@@H](O)C[C@H](C(=O)NCC2CCCCO2)C(C)C)C(C)C)ccc1OC (single isomer, unassigned) [Example 20] = 7 nM
COCCCOc1cc(C[C@@H](C[C@H](N)[C@@H](O)C[C@H](C(=O)NCc2ccco2)C(C)C)C(C)C)ccc1OC = 0.9 nM
COCCCOc1cc(C[C@@H](C[C@H](N)[C@@H](O)C[C@H](C(=O)N[C@H]2CCOC2)C(C)C)C(C)C)ccc1OC = 0.2 nM
COCCCOc1cc(C[C@@H](C[C@H](N)[C@@H](O)C[C@H](C(=O)N[C@@H]2CCOC2)C(C)C)C(C)C)ccc1OC = 0.7 nM
COCCCOc1cc(C[C@@H](C[C@H](N)[C@@H](O)C[C@H](C(=O)NC2CCN(C)CC2)C(C)C)C(C)C)ccc1OC = 3.2 nM

Batch: IC50 for all items listed.
1. COCCCOc1cc(C[C@@H](C[C@H](N)[C@@H](O)C[C@H](C(=O)NCC2CCCCO2)C(C)C)C(C)C)ccc1OC (single isomer, unassigned) [Example 19]
2. COCCCOc1cc(C[C@@H](C[C@H](N)[C@@H](O)C[C@H](C(=O)N[C@@H]2CCN(C)C2)C(C)C)C(C)C)ccc1OC
3. COCCCOc1cc(C[C@@H](C[C@H](N)[C@@H](O)C[C@H](C(=O)NCc2ccoc2)C(C)C)C(C)C)ccc1OC
4. COCCCOc1cc(C[C@@H](C[C@H](N)[C@@H](O)C[C@H](C(=O)NC[C@@H]2CCCO2)C(C)C)C(C)C)ccc1C
5. COCCCOc1cc(C[C@@H](C[C@H](N)[C@@H](O)C[C@H](C(=O)NCC2CCOC2)C(C)C)C(C)C)ccc1OC (single isomer, unassigned) [Example 30]

A:
["8 nM", "4 nM", "2.5 nM", "0.6 nM", "0.8 nM"]

Hi there! I need IC50 for each item below, if you can.
1. COCCCOc1cc(C[C@@H](C[C@H](N)[C@@H](O)C[C@H](C(=O)NC2CCOCC2)C(C)C)C(C)C)ccc1C
2. COCCCOc1cc(C[C@@H](C[C@H](N)[C@@H](O)C[C@H](C(=O)NC2CCCOC2)C(C)C)C(C)C)ccc1OC (single isomer, unassigned) [Example 22]

A:
["0.5 nM", "2.5 nM"]

---

Assayed target: Recombinant human renin (Homo sapiens, UniProt P00797)
Construct: made in house; host or cells: Chinese Hamster Ovary cells
Test summary: Renin inhibitory activity in vitro, hu-renin FRET assay
Assay type: biochemical
I'd be grateful if you could share measured log10(IC50) for these entries.
Kindly note that the scale is log10 and the underlying IC50 is in nM.

COCCCOc1cc(C[C@@H](C[C@H](N)[C@@H](O)C[C@H](C(=O)NC[C@H]2CCCO2)C(C)C)C(C)C)ccc1C = -0.30
COCCCOc1cc(C[C@@H](C[C@H](N)[C@@H](O)C[C@H](C(=O)NC2CCOCC2)C(C)C)C(C)C)ccc1OC = 0.15
COCCCCc1cc(C[C@@H](C[C@H](N)[C@@H](O)C[C@H](C(=O)NC2CCOCC2)C(C)C)C(C)C)ccc1OC = -0.52
COCCCOc1cc(C[C@@H](C[C@H](N)[C@@H](O)C[C@H](C(=O)NC[C@@H]2CCCO2)C(C)C)C(C)C)ccc1OC = 0.54

Provide log10(IC50) for all items below, preserving their order.
1. COCCCOc1cc(C[C@@H](C[C@H](N)[C@@H](O)C[C@H](C(=O)NCC2CCOCC2)C(C)C)C(C)C)ccc1OC
2. COCCCOc1cc(C[C@@H](C[C@H](N)[C@@H](O)C[C@H](C(=O)NC[C@H]2CCCO2)C(C)C)C(C)C)ccc1OC

A:
0.15
0.60

---

Assayed target: Recombinant human renin (Homo sapiens, UniProt P00797)
Construct: made in house; host or cells: Chinese Hamster Ovary cells
Test summary: Renin inhibitory activity in vitro, hu-renin FRET assay
Format: biochemical
Record form. Attribute: IC50. Fill in for each entry.
Give bare numbers, in nM.

Illustrative cases are given below, each with its answer.
COCCCOc1cc(C[C@@H](C[C@H](N)[C@@H](O)C[C@H](C(=O)NC2CCCOC2)C(C)C)C(C)C)ccc1OC (single isomer, unassigned) [Example 23] = 0.5
COCCCOc1cc(C[C@@H](C[C@H](N)[C@@H](O)C[C@H](C(=O)NCC2CCOC2)C(C)C)C(C)C)ccc1OC (single isomer, unassigned) [Example 29] = 0.4

Next compound, please.
Q: Endpoint output: IC50 of COCCCOc1cc(C[C@@H](C[C@H](N)[C@@H](O)C[C@H](C(=O)N[C@H]2CCN(C)C2)C(C)C)C(C)C)ccc1OC . Value?
A: 0.7
